Test system: OCI-AML2;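 note: after 48 h exposure read by CellTiter-Glo luminescence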
Test: cell viability relative to vehicle control; higher = less cytotoxic
Conditions: 10 µM; SRSF2 genotype: P95H/wt
recorded metric: cell viability (%)
Give the number; % is assumed, so skip it.

Req: Recorded cell viability of CC(=O)O[C@@H]1C[C@@]23C[C@@]24CC[C@H](O[C@@H]2OC[C@@H](O)[C@H](O)[C@H]2O)C(C)(C)[C@@H]4CC=C3[C@]2(C)C[C@@H]3OC4(C[C@@H](C)[C@@H]3[C@@]12C)OC(O)C1(C)OC41 (some centres not stated) [Cimicifugoside] , please.
Resp: 99

Req: Recorded cell viability of CNC(=O)c1ccc(N2C(=S)N(c3cnc(C#N)c(C(F)(F)F)c3)C(=O)C23CCC3)cc1F , please.
Resp: 96.2

Req: Recorded cell viability of C/C(=C\CO)CCC[C@H](C)CCC[C@H](C)CCCC(C)C [Phytol] , please.
Resp: 80.5

Req: Recorded cell viability of O=c1ccc2cc(O)ccc2o1 [6-Hydroxycoumarin] , please.
Resp: 97.9

Req: Recorded cell viability of C[C@@H]1O[C@@H](O[C@H]2[C@H](Oc3cc(O)c4c(c3)O[C@H](c3ccc(O)cc3)CC4=O)O[C@H](CO)[C@@H](O)[C@@H]2O)[C@H](O)[C@H](O)[C@H]1O [Naringin (Naringoside)] , please.
Resp: 112

Req: Recorded cell viability of Cc1cn([C@H]2C[C@H](N=[N+]=[N-])[C@@H](CO)O2)c(=O)[nH]c1=O [Zidovudine (Retrovir)] , please.
Resp: 101

Req: Recorded cell viability of Oc1ccc2c(c1)OCO2 [Sesamol] , please.
Resp: 92
